Here, each record is paired with measured shrunken log2 fold change data.
- Test system: Escherichia coli TOP10
- assay.method.text: shrunken log2 fold change of peptide-encoding DNA abundance (4.5 h post-induction vs induction); higher = less antimicrobial activity (less host growth inhibition)
- conditions.used: time post-induction: 4.5 h; library: site-saturation at positions 5, 18, 19, 20
observable: shrunken log2 fold change

>  <primary.sequence>
RRIRSRPPRLPRPRPRPPTDPRP

>  <result>
0.429

$$$$
>  <primary.sequence>
RRIRARPPRLPRPRPRPGIAPRP

>  <result>
0.331

$$$$
>  <primary.sequence>
RRIRARPPRLPRPRPRPGWNPRP

>  <result>
0.545

$$$$
>  <primary.sequence>
RRIRQRPPRLPRPRPRPPGEPRP

>  <result>
0.119

$$$$
>  <primary.sequence>
RRIRDRPPRLPRPRPRPGQPPRP

>  <result>
-0.181

$$$$
>  <primary.sequence>
RRIRFRPPRLPRPRPRPPEIPRP

>  <result>
-0.204

$$$$
>  <primary.sequence>
RRIRGRPPRLPRPRPRPILSPRP

>  <result>
0.516

$$$$
>  <primary.sequence>
RRIRFRPPRLPRPRPRPINWPRP

>  <result>
-0.113

$$$$
>  <primary.sequence>
RRIRIRPPRLPRPRPRPDLLPRP

>  <result>
-0.634

$$$$
>  <primary.sequence>
RRIRYRPPRLPRPRPRPMTLPRP

>  <result>
-0.0394

$$$$
>  <primary.sequence>
RRIRYRPPRLPRPRPRPRREPRP

>  <result>
0.0181

$$$$
>  <primary.sequence>
RRIRCRPPRLPRPRPRPEWLPRP

>  <result>
0.479

$$$$
>  <primary.sequence>
RRIRIRPPRLPRPRPRPGWNPRP

>  <result>
-0.0913

$$$$
>  <primary.sequence>
RRIRLRPPRLPRPRPRPLTCPRP

>  <result>
-0.0184

$$$$
>  <primary.sequence>
RRIRFRPPRLPRPRPRPLFNPRP

>  <result>
-0.605

$$$$

====

- System: Escherichia coli TOP10
- assay.method.text: shrunken log2 fold change of peptide-encoding DNA abundance (4.5 h post-induction vs induction); higher = less antimicrobial activity (less host growth inhibition)
- conditions.used: time post-induction: 4.5 h; library: site-saturation at positions 5, 18, 19, 20

>  <primary.sequence>
RRIRERPPRLPRPRPRPRLEPRP

>  <shrunken log2 fold change>
-0.0353

$$$$
>  <primary.sequence>
RRIRMRPPRLPRPRPRPQRAPRP

>  <shrunken log2 fold change>
0.943

$$$$
>  <primary.sequence>
RRIRERPPRLPRPRPRPLHGPRP

>  <shrunken log2 fold change>
-0.212

$$$$
>  <primary.sequence>
RRIRFRPPRLPRPRPRPNLKPRP

>  <shrunken log2 fold change>
-0.553

$$$$
>  <primary.sequence>
RRIRGRPPRLPRPRPRPGCSPRP

>  <shrunken log2 fold change>
0.867

$$$$
>  <primary.sequence>
RRIRLRPPRLPRPRPRPVAAPRP

>  <shrunken log2 fold change>
0.382

$$$$
>  <primary.sequence>
RRIRYRPPRLPRPRPRPDLMPRP

>  <shrunken log2 fold change>
-0.107

$$$$
>  <primary.sequence>
RRIRPRPPRLPRPRPRPRNTPRP

>  <shrunken log2 fold change>
1.19

$$$$
>  <primary.sequence>
RRIRCRPPRLPRPRPRPSQAPRP

>  <shrunken log2 fold change>
-0.0139

$$$$
>  <primary.sequence>
RRIRHRPPRLPRPRPRPFRWPRP

>  <shrunken log2 fold change>
0.137

$$$$
>  <primary.sequence>
RRIRWRPPRLPRPRPRPNEDPRP

>  <shrunken log2 fold change>
0.211

$$$$
>  <primary.sequence>
RRIRHRPPRLPRPRPRPRIQPRP

>  <shrunken log2 fold change>
-0.267

$$$$
>  <primary.sequence>
RRIRLRPPRLPRPRPRPTVGPRP

>  <shrunken log2 fold change>
0.0924

$$$$
>  <primary.sequence>
RRIRVRPPRLPRPRPRPNQGPRP

>  <shrunken log2 fold change>
-0.129

$$$$
>  <primary.sequence>
RRIRRRPPRLPRPRPRPIHQPRP

>  <shrunken log2 fold change>
-0.136

$$$$

====

- Tested on: Escherichia coli TOP10
- assay.method.text: shrunken log2 fold change of peptide-encoding DNA abundance (4.5 h post-induction vs induction); higher = less antimicrobial activity (less host growth inhibition)
- conditions.used: time post-induction: 4.5 h; library: site-saturation at positions 5, 18, 19, 20
Parameter shrunken log2 fold change: see the listing below.

>  <primary.sequence>
RRIRVRPPRLPRPRPRPMPRPRP

>  <shrunken log2 fold change>
0.24

$$$$
>  <primary.sequence>
RRIRSRPPRLPRPRPRPDGGPRP

>  <shrunken log2 fold change>
-0.125

$$$$
>  <primary.sequence>
RRIRFRPPRLPRPRPRPITYPRP

>  <shrunken log2 fold change>
-0.472

$$$$
>  <primary.sequence>
RRIRHRPPRLPRPRPRPKTMPRP

>  <shrunken log2 fold change>
-0.0912

$$$$
>  <primary.sequence>
RRIRFRPPRLPRPRPRPNMHPRP

>  <shrunken log2 fold change>
-0.377

$$$$
>  <primary.sequence>
RRIRMRPPRLPRPRPRPRDRPRP

>  <shrunken log2 fold change>
1.11

$$$$
>  <primary.sequence>
RRIRKRPPRLPRPRPRPVPDPRP

>  <shrunken log2 fold change>
0.418

$$$$
>  <primary.sequence>
RRIRCRPPRLPRPRPRPTQSPRP

>  <shrunken log2 fold change>
0.565

$$$$
>  <primary.sequence>
RRIRMRPPRLPRPRPRPNDYPRP

>  <shrunken log2 fold change>
-0.103

$$$$
>  <primary.sequence>
RRIRTRPPRLPRPRPRPCKYPRP

>  <shrunken log2 fold change>
-0.41

$$$$
>  <primary.sequence>
RRIRYRPPRLPRPRPRPTNHPRP

>  <shrunken log2 fold change>
-0.709

$$$$
>  <primary.sequence>
RRIRDRPPRLPRPRPRPDMQPRP

>  <shrunken log2 fold change>
1.13

$$$$
>  <primary.sequence>
RRIRRRPPRLPRPRPRPIIYPRP

>  <shrunken log2 fold change>
-0.0798

$$$$
>  <primary.sequence>
RRIRNRPPRLPRPRPRPNFKPRP

>  <shrunken log2 fold change>
-0.0826

$$$$
>  <primary.sequence>
RRIRQRPPRLPRPRPRPKAEPRP

>  <shrunken log2 fold change>
0.45

$$$$

====

- System: Escherichia coli TOP10
- assay.method.text: shrunken log2 fold change of peptide-encoding DNA abundance (4.5 h post-induction vs induction); higher = less antimicrobial activity (less host growth inhibition)
- conditions.used: time post-induction: 4.5 h; library: site-saturation at positions 5, 18, 19, 20
The following sequences are listed with their measured shrunken log2 fold change values.

>  <primary.sequence>
RRIRKRPPRLPRPRPRPWCFPRP

>  <shrunken log2 fold change>
0.164

$$$$
>  <primary.sequence>
RRIRQRPPRLPRPRPRPDCSPRP

>  <shrunken log2 fold change>
0.0489

$$$$
>  <primary.sequence>
RRIRARPPRLPRPRPRPTGMPRP

>  <shrunken log2 fold change>
0.52

$$$$
>  <primary.sequence>
RRIRTRPPRLPRPRPRPFIPPRP

>  <shrunken log2 fold change>
-0.312

$$$$
>  <primary.sequence>
RRIRTRPPRLPRPRPRPYFGPRP

>  <shrunken log2 fold change>
-0.589

$$$$
>  <primary.sequence>
RRIRCRPPRLPRPRPRPLTNPRP

>  <shrunken log2 fold change>
-0.454

$$$$
>  <primary.sequence>
RRIRYRPPRLPRPRPRPTVWPRP

>  <shrunken log2 fold change>
0.385

$$$$
>  <primary.sequence>
RRIRMRPPRLPRPRPRPDCGPRP

>  <shrunken log2 fold change>
-0.167

$$$$
>  <primary.sequence>
RRIRGRPPRLPRPRPRPQKNPRP

>  <shrunken log2 fold change>
0.368

$$$$
>  <primary.sequence>
RRIRQRPPRLPRPRPRPAGSPRP

>  <shrunken log2 fold change>
0.0285

$$$$
>  <primary.sequence>
RRIRLRPPRLPRPRPRPKCLPRP

>  <shrunken log2 fold change>
0.117

$$$$
>  <primary.sequence>
RRIRKRPPRLPRPRPRPISFPRP

>  <shrunken log2 fold change>
-0.1

$$$$
>  <primary.sequence>
RRIRYRPPRLPRPRPRPAAAPRP

>  <shrunken log2 fold change>
0.455

$$$$
>  <primary.sequence>
RRIRPRPPRLPRPRPRPDHHPRP

>  <shrunken log2 fold change>
-0.543

$$$$
>  <primary.sequence>
RRIRGRPPRLPRPRPRPHNLPRP

>  <shrunken log2 fold change>
-0.262

$$$$

====

- System: Escherichia coli TOP10
- assay.method.text: shrunken log2 fold change of peptide-encoding DNA abundance (4.5 h post-induction vs induction); higher = less antimicrobial activity (less host growth inhibition)
- conditions.used: time post-induction: 4.5 h; library: site-saturation at positions 5, 18, 19, 20
shrunken log2 fold change values for the sequences below.

>  <primary.sequence>
RRIRPRPPRLPRPRPRPEIAPRP

>  <study.target>
Escherichia coli TOP10

>  <shrunken log2 fold change>
0.189

$$$$
>  <primary.sequence>
RRIRWRPPRLPRPRPRPYSAPRP

>  <study.target>
Escherichia coli TOP10

>  <shrunken log2 fold change>
-0.147

$$$$
>  <primary.sequence>
RRIRGRPPRLPRPRPRPNTNPRP

>  <study.target>
Escherichia coli TOP10

>  <shrunken log2 fold change>
0.256

$$$$
>  <primary.sequence>
RRIRHRPPRLPRPRPRPQCYPRP

>  <study.target>
Escherichia coli TOP10

>  <shrunken log2 fold change>
-0.75

$$$$
>  <primary.sequence>
RRIRRRPPRLPRPRPRPEEDPRP

>  <study.target>
Escherichia coli TOP10

>  <shrunken log2 fold change>
-0.0235

$$$$
>  <primary.sequence>
RRIRYRPPRLPRPRPRPSSKPRP

>  <study.target>
Escherichia coli TOP10

>  <shrunken log2 fold change>
-1

$$$$
>  <primary.sequence>
RRIRIRPPRLPRPRPRPMSCPRP

>  <study.target>
Escherichia coli TOP10

>  <shrunken log2 fold change>
-0.141

$$$$
>  <primary.sequence>
RRIRKRPPRLPRPRPRPMKIPRP

>  <study.target>
Escherichia coli TOP10

>  <shrunken log2 fold change>
0.291

$$$$
>  <primary.sequence>
RRIRARPPRLPRPRPRPVRIPRP

>  <study.target>
Escherichia coli TOP10

>  <shrunken log2 fold change>
0.00598

$$$$
>  <primary.sequence>
RRIRWRPPRLPRPRPRPTNPPRP

>  <study.target>
Escherichia coli TOP10

>  <shrunken log2 fold change>
-0.0172

$$$$
>  <primary.sequence>
RRIRNRPPRLPRPRPRPVNLPRP

>  <study.target>
Escherichia coli TOP10

>  <shrunken log2 fold change>
-0.0237

$$$$
>  <primary.sequence>
RRIRNRPPRLPRPRPRPTANPRP

>  <study.target>
Escherichia coli TOP10

>  <shrunken log2 fold change>
0.0124

$$$$
>  <primary.sequence>
RRIRSRPPRLPRPRPRPSMIPRP

>  <study.target>
Escherichia coli TOP10

>  <shrunken log2 fold change>
-0.625

$$$$
>  <primary.sequence>
RRIRRRPPRLPRPRPRPACSPRP

>  <study.target>
Escherichia coli TOP10

>  <shrunken log2 fold change>
0.377

$$$$
>  <primary.sequence>
RRIRLRPPRLPRPRPRPTDYPRP

>  <study.target>
Escherichia coli TOP10;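 note: peptides expressed intracellularly from a pBAD plasmid library in pooled LB shake-flask culture, induced with 0.3% L-arabinose, DNA abundance read by NGS, three biological replicates, DESeq2 with apeglm shrinkage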

>  <shrunken log2 fold change>
-0.286

$$$$
